tgt: Macrophage metalloelastase (Homo sapiens)
Sequence (P39900 106-470 limits assumed): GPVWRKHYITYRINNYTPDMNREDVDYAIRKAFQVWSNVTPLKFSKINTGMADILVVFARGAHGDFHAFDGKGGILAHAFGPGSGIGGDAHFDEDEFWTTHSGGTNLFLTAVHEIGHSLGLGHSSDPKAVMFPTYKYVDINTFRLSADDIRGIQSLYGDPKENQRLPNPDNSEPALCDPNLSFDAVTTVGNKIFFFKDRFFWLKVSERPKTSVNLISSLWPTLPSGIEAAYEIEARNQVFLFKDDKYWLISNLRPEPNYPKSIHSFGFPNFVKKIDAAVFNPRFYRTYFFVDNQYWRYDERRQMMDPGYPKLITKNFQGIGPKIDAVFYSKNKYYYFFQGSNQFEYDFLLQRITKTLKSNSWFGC
procedure text: Inhibition of human recombinant MMP-12 using Mca-Pro-Leu-Gly-Leu-Dpa-Ala-Arg-NH2.AcOH as substrate at 10 uM preincubated for 30 mins prior to substrate addition measured for 30 mins by fluorescence assay relative to control
The source made the active and inactive calls. The rule behind the calls is not given here.
quantity name: inhibition

Example entries and their recorded answers appear below.
> print(dat)
                                   compound     val
1  CC(c1cc2ccccc2s1)N(O)C(N)=O (stereo not given)  Active
2          C[C@H](CS)C(=O)N1CCC[C@H]1C(=O)O  Active
3  COc1ccc(S(=O)(=O)N(Cc2cccnc2)[C@@H](C(=O)NO)C(C)C)cc1 [CGS-27023A]     95%
4  O=C(O)[C@H](Cc1ccccc1)NS(=O)(=O)c1ccc(-c2ccccc2)cc1  Active
5  CC(=O)N(O)CCCCCNC(=O)CCC(=O)N(O)CCCCCNC(=O)CCC(=O)N(O)CCCCCN  Active
6   O=C(NCc1ccc(-c2ccccc2)cc1)c1cccc(=O)n1O    100%

I need inhibition for every entry listed below, if you could help.
1. CC(=O)Nc1nnc(S(N)(=O)=O)s1
2. Cc1nc(C(=O)NCc2ccc(F)cc2)c(O)c(=O)[nH]1
3. O=C(CCCCCCC(=O)Nc1ccccc1)NO
4. O=C(/C=C/c1ccc(Cl)cc1Cl)NO

Result:
["Active", "Active", "< 25%", "< 25%"]

* * *

tgt: 72 kDa type IV collagenase (Homo sapiens, UniProt P08253)
Sequence (P08253 whole entry): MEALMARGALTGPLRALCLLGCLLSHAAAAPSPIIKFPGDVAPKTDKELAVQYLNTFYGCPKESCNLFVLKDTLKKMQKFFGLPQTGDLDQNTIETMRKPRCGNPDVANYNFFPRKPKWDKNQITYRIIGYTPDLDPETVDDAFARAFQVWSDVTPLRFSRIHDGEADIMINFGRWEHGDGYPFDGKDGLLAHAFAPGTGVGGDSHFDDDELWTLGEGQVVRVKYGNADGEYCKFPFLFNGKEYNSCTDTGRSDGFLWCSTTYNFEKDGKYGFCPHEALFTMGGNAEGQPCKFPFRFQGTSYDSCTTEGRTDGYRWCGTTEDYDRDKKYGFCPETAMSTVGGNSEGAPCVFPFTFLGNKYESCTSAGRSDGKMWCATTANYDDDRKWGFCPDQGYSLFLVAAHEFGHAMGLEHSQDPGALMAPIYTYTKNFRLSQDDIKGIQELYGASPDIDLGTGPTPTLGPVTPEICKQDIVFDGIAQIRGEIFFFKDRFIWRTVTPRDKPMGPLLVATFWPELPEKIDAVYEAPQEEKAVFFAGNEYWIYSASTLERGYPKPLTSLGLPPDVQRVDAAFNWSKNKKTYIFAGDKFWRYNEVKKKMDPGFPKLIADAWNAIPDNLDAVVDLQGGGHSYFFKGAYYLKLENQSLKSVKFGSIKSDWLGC
procedure text: Inhibition of human recombinant MMP-2 using Mca-Pro-Leu-Gly-Leu-Dpa-Ala-Arg-NH2.AcOH as substrate preincubated for 30 mins prior to substrate addition measured for 30 mins by fluorescence assay
quantity name: IC50 (µM)
Give bare numbers, in µM.

Problem: Reported IC50, molecule O=C(O)[C@H](Cc1ccccc1)NS(=O)(=O)c1ccc(-c2ccccc2)cc1 : ____
Result: 0.24
